Measured pIC50 values are reported for all entries that follow.
molecular target: Cholinesterase (Homo sapiens, UniProt P06276); test: Inhibition of human BChE
Sequence (P06276 whole entry): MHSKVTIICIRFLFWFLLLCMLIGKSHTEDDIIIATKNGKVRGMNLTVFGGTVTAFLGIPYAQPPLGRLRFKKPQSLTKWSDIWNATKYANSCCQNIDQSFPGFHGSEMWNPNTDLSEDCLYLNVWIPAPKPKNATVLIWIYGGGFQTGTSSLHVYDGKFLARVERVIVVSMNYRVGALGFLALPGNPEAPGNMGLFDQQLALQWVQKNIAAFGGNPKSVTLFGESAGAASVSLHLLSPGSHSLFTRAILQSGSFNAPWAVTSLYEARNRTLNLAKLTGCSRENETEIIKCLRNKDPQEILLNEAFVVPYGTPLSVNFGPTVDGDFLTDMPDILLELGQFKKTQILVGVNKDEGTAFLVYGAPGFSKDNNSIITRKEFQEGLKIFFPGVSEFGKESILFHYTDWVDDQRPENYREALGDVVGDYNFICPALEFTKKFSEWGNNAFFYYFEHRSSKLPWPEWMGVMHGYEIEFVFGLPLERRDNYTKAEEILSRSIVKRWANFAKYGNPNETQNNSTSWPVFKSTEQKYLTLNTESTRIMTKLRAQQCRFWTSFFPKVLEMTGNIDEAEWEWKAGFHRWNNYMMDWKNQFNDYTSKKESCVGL
pIC50: −log10 of the molar value.

# smiles str, assay target, pIC50
records = [
    ("Clc1ccc2c(NCCCCCN3c4ccccc4Sc4ccccc43)c3c(nc2c1)CCCC3", "Cholinesterase (Homo sapiens, UniProt P06276)", 6.72),
    ("COC(=O)c1cc(C(=O)c2ccc(OC)cc2)n2ccc(CCCc3cc[n+](C)cc3)cc12", "Cholinesterase (Homo sapiens, UniProt P06276)", 4.41),
    ("N=c1oc2ccccc2cc1C(=O)Nc1cc(Br)ccc1N1CCN(Cc2ccc(F)cc2)CC1", "Cholinesterase (Homo sapiens, UniProt P06276)", 4.98),
    ("S=C(NCCCCNc1c2c(nc3ccccc13)CCCC2)Nc1c[nH]c2ccccc12", "Cholinesterase (Homo sapiens, UniProt P06276)", 7.12),
    ("COC(=O)[C@H]1[C@H]2C[C@@H]3c4[nH]c5cc(OC)ccc5c4CCN3C[C@H]2C[C@@H](OC(=O)c2cc(OC)c(OC)c(OC)c2)[C@@H]1OC", "Cholinesterase (Homo sapiens, UniProt P06276)", 5.55),
]
